tested-on: Protein phosphatase EYA2 (Homo sapiens) (UniProt O00167)
Sequence (O00167 whole entry, looked up): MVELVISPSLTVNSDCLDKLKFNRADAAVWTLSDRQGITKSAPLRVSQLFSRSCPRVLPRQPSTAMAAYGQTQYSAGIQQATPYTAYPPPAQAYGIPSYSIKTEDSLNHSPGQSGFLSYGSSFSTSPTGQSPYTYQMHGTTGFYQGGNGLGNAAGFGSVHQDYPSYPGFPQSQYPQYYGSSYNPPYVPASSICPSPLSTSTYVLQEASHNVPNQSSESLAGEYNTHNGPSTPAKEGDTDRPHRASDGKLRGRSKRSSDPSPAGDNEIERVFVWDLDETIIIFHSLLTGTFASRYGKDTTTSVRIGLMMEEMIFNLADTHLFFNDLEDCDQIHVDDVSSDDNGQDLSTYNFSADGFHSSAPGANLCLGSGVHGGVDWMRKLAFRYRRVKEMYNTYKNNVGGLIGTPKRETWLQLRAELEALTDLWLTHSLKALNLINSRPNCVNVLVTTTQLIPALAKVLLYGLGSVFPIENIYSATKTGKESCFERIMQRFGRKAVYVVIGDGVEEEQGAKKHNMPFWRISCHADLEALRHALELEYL
assay-explanation: qHTS for Inhibitors of the Phosphatase Activity of Eya2: Confirmatory Assay for Cherry-picked Compounds; also: nearly all actives have a fitted effect of over 65% in size; also: potency is read from the fitted curve at half-maximal effect
condition: purified EYA2 phosphatase activity, qHTS confirmation; series mostly up to 46.1 µM
Out of some 1,300 compounds screened, about 460 (35%) were called active. Inconclusive results (about 39%) are left out. Some of the results follow.
measure: Potency

# annotated cases, reported Potency shown
>  <compound>
O=C1NC(=S)N(c2ccccc2)C(=O)/C1=C/c1ccco1

>  <tested-on>
Protein phosphatase EYA2 (Homo sapiens) (UniProt O00167)

>  <measure>
Potency

>  <result>
6.75 µM (active)

$$$$
>  <compound>
O=C(Cc1ccccc1)c1ccccn1

>  <tested-on>
Protein phosphatase EYA2 (Homo sapiens) (UniProt O00167)

>  <measure>
Potency

>  <result>
10.7 µM (active)

$$$$
>  <compound>
C=C1C(=O)O[C@@H]2C[C@@H](C)[C@@H]3C=CC(=O)[C@@]3(C)[C@@H](OC(=O)CC(=O)O[C@H]3[C@@H]4C(=C)C(=O)O[C@@H]4C[C@@H](C)[C@@H]4C=CC(=O)[C@]43C)[C@H]12

>  <tested-on>
Protein phosphatase EYA2 (Homo sapiens) (UniProt O00167)

>  <measure>
Potency

>  <result>
10.7 µM (active)

$$$$
>  <compound>
Cc1c(N=Nc2c(O)[nH]c(=O)[nH]c2=O)c(=O)n(-c2ccccc2)n1C

>  <tested-on>
Protein phosphatase EYA2 (Homo sapiens) (UniProt O00167)

>  <measure>
Potency

>  <result>
2.13 µM (active)

$$$$
>  <compound>
CC(N)[C@H](O)c1ccc(O)c(O)c1 (some centres undefined)

>  <tested-on>
Protein phosphatase EYA2 (Homo sapiens) (UniProt O00167)

>  <measure>
Potency

>  <result>
inactive

$$$$
>  <compound>
O=C1NC(=O)N(c2ccc(Cl)cc2)C(=O)/C1=C\c1ccc(Sc2nc3ccccc3[nH]2)o1

>  <tested-on>
Protein phosphatase EYA2 (Homo sapiens) (UniProt O00167)

>  <measure>
Potency

>  <result>
13.5 µM (active)

$$$$
>  <compound>
O=C(O)c1cc[c]([Sb](=[O])([OH])[OH])cc1[N+](=O)[O-]

>  <tested-on>
Protein phosphatase EYA2 (Homo sapiens) (UniProt O00167)

>  <measure>
Potency

>  <result>
2.69 µM (active)

$$$$
>  <compound>
COC(=O)C1=C(c2cccc(OCc3ccccc3)c2)C[C@@H]2CC[C@H]1N2C(=O)NCCCc1ccccc1

>  <tested-on>
Protein phosphatase EYA2 (Homo sapiens) (UniProt O00167)

>  <measure>
Potency

>  <result>
inactive

$$$$

Lab note: next compound to report on.
Ask: Tell me measured Potency for CN(C)c1ccc(N=Nc2ccccc2)cc1 please.
Result: 5.36 µM (active)

---

tested-on: Protein phosphatase EYA2 (Homo sapiens) (UniProt O00167)
assay-explanation: qHTS for Inhibitors of the Phosphatase Activity of Eya2: Confirmatory Assay for Cherry-picked Compounds; also: nearly all actives have a fitted effect of over 65% in size
condition: purified EYA2 phosphatase activity, qHTS confirmation; series mostly up to 46.1 µM
Out of some 1,300 compounds screened, about 460 (35%) were called active. Roughly 39% stayed inconclusive and do not appear here. Calls follow the shape of the dose curve; as a rule, active = well fitted inhibition curve with a large enough effect; inconclusive = small, poorly fitted or top-dose-only effect; inactive = flat fitted curve, though single readings scatter. The list shows a part of the results.
Response enum: 1.0 = active, 0.0 = inactive

Solved entries:
>  <compound>
COC1C(O)C(C)OC(OC2C(Oc3cccc4c(O)c5c(=O)oc6ccc(C)c7c(=O)oc(c34)c5c67)OC(C)C(O)C2O)C1O (stereo unspecified)

>  <label>
0.0

$$$$
>  <compound>
CCOC(=O)c1cc2c(cn1)[C@@H](CCO)NC2

>  <label>
0.0

$$$$
>  <compound>
Cc1nc2ccccc2c(=O)n1-c1ccc(Cl)cc1[N+](=O)[O-]

>  <label>
0.0

$$$$
>  <compound>
O=C(O)CCCOc1ccc(Cl)cc1Cl

>  <label>
0.0

$$$$

Ask: I would be grateful if you could indicate the recorded call for Cc1ccc(N2C(=O)NC(=O)/C(=C/c3ccc(OC(=O)c4cccs4)cc3)C2=O)cc1 .
Result: 1.0

Ask: I would be grateful if you could indicate the recorded call for C[C@H]1CCC[C@H](O)CCCCCc2cc(O)cc(O)c2C(=O)O1 .
Result: 0.0
